# target_of_assay: Biotinylated murine soluble TWEAK (amino acids 81-225 of SEQ ID NO: 61) (murine) (UniProt O54907)
# assay_procedure: Biacore SPR, biotinylated murine soluble TWEAK on SA sensor, antibody as analyte, 37 C
Exercise: for every item that follows, state its recorded t/2 diss.
Report as a plain number; the unit min is understood.

Measured t/2 diss, Antibody 34 (antibody, V domains shown, Humanized variant of antibody 305; also called humanized 305 variant 305-LC4 / 305-HC2) VH: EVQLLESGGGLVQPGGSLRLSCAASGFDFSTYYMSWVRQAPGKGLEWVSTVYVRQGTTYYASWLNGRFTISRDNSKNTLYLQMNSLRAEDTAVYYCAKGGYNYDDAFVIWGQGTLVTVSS VL: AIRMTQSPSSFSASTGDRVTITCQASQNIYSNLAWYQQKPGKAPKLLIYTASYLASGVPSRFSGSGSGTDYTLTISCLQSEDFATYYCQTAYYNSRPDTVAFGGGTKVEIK : 20

Measured t/2 diss, Antibody 33 (antibody, V domains shown, Humanized variant of antibody 305; also called humanized 305 variant 305-LC4 / 305-HC4) VH: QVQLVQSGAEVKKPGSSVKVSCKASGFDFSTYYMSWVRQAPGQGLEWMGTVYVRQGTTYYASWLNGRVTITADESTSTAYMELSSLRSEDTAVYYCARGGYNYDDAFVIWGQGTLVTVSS VL: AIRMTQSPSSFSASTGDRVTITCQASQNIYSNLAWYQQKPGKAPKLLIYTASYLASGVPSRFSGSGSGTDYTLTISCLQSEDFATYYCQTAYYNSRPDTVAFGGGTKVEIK : 15

Measured t/2 diss, Antibody 30 (antibody, V domains shown, Humanized variant of antibody 305; also called humanized 305 variant 305-LC1 / 305-HC10) VH: EVQLLESGGGLVQPGGSLRLSCAASGFDFSTYYMSWVRQAPGKGLEWVSTVYVRQGTTYYASWLNGRFTISRDNSKNTLYLQMNSLTAEDTAVYYCAKGGYNYDDAFVIWGQGTLVTVSS VL: DIQMTQSPSSVSASVGDRVTITCQASQNIYSNLAWYQQKPGKAPKLLIYTASYLASGVPSRFSGSGSGTDFTLTISSLQPEDFATYYCQTAYYNSRPDTVAFGGGTKVEIK : 15
